Experiment: DUSP6 inhibitors restoring Erk phosphorylation by chemical complementation, primary imaging in DUSP6-transfected HeLa (AID 609)
Details: HeLa MKP-3 transfected, phospho-Erk imaging KS statistic; measured here: nuclear c-Myc green intensity z-score; at 10 µM; cells stimulated with TPA for 15 min
Recorded z-score values for a group of compounds are listed next.
parameter.measured: z-score

[[record]]
compound = "Cc1nc(SC2C=CS(=O)(=O)C2)n[nH]1 (stereo not given)"
assay_value = 0.156

[[record]]
compound = "COc1ccc(-c2cn3ccsc3n2)cc1"
assay_value = -1.4

[[record]]
compound = "O=C(CCN1CCCCC1)Nc1cccc(Cl)c1"
assay_value = 0.965

[[record]]
compound = "CCCCNc1nc2c(c(=O)n(C)c(=O)n2C)n1Cc1cccc(OC)c1"
assay_value = -0.341

[[record]]
compound = "CCCc1cc(C(=O)Cc2ccc(F)cc2)c(O)cc1O"
assay_value = -0.762

[[record]]
compound = "CCCCOC(=O)Nc1ccc(S(=O)(=O)Nc2nc(C)cc(C)n2)cc1"
assay_value = 1.82

[[record]]
compound = "CN1CCN(C(=O)CSc2nc(-c3ccncc3)ccc2C#N)CC1"
assay_value = 0.894

[[record]]
compound = "CCCc1cc(=O)oc2c(CN3CCCC3)c(O)c(Cl)cc12"
assay_value = -0.732

[[record]]
compound = "NC(=O)CSc1nc(N)c2c3c(sc2n1)CCCCC3"
assay_value = -0.0373

[[record]]
compound = "CC(C)Cc1nc(N2CCN(C(=O)C(C)C)CC2)c(C#N)c2c1CCC2"
assay_value = 0.114

[[record]]
compound = "OC1(c2cccc(C(F)(F)F)c2)CCN(c2ncnc3c2[nH]c2ccccc23)CC1"
assay_value = 1.11

[[record]]
compound = "Cc1ccc(S(=O)(=O)NCC(=O)OCN2C(=O)c3ccccc3C2=O)cc1"
assay_value = -0.796

[[record]]
compound = "ClC(Br)=C(n1cnc2ccccc21)n1cnc2ccccc21"
assay_value = -0.506

[[record]]
compound = "N#CC1=C(SCC(=O)c2ccc(Br)cc2)NC2=C(C(=O)CCC2)C1c1ccco1 (stereo not given)"
assay_value = -1.61

[[record]]
compound = "CCCCOc1cccc(-c2nnc(N)s2)c1"
assay_value = 0.503

[[record]]
compound = "C[C@@H]1C[C@H]2[C@@H]3C[C@H](F)C4=CC(=O)C=C[C@]4(C)[C@@]3(F)[C@@H](O)C[C@]2(C)[C@@]1(O)C(=O)CO"
assay_value = 0.0959

[[record]]
compound = "N#C/C(=C\\c1ccc(O)c(O)c1)C(=O)NCCCc1ccccc1"
assay_value = 0.253

[[record]]
compound = "Cc1c([C@H]2[C@@H](CC#N)C2(C)C)c2ccccc2n1C"
assay_value = 0.872

[[record]]
compound = "CCOC(=O)c1[nH]c2cc3c(cc2c1NC(=O)CN1CCc2ccccc2C1)OCO3"
assay_value = -0.223

[[record]]
compound = "NC(=O)c1cc(-c2ccccc2)nc(Oc2ccccc2)n1"
assay_value = -0.523

[[record]]
compound = "CCCCCC(=O)N1CC2(CC)CN(C(=O)CCCCC)CC(CC)(C1)C2=O"
assay_value = -0.132

[[record]]
compound = "Cn1c(=O)[nH]c(=O)c2c1nc(N(CCO)Cc1ccccc1)n2Cc1ccccc1Cl"
assay_value = -1.16

[[record]]
compound = "CCOC(=O)CC(=O)CSc1[nH]c(=O)cc(C)c1C#N"
assay_value = 0.221

[[record]]
compound = "Cc1nnc2n(Cc3ccccc3)c(=O)c3c4c(sc3n12)CN(Cc1ccccc1)CC4"
assay_value = 0.579

[[record]]
compound = "Fc1ccc(C2C3=C(Nc4ncnn42)c2ccccc2OC3c2ccncc2)cc1 (stereo not given)"
assay_value = -0.105

[[record]]
compound = "c1ccc(CN2CCN(c3nc(-c4ccccn4)nc4ccccc34)CC2)cc1"
assay_value = -1.13

[[record]]
compound = "CN1CCN(c2nc3c(c(=O)n(C)c(=O)n3C)n2Cc2cccc3ccccc23)CC1"
assay_value = -0.191

[[record]]
compound = "COc1cccc(C2/C(=C(/O)c3cnn(-c4ccccc4)c3C)C(=O)C(=O)N2CCN(C)C)c1 (stereo not given)"
assay_value = -0.911

[[record]]
compound = "Cc1cc(=O)oc(C)c1C(=O)Nc1cccc2nonc12"
assay_value = -1.68

[[record]]
compound = "CC1(C)CC(=O)C2=C(C1)Oc1nc3ccccc3cc1C2C(C#N)C#N (stereo not given)"
assay_value = -0.642

[[record]]
compound = "CCn1c(SC(C)C(=O)O)nc2sc3c(c2c1=O)CCC3 (stereo not given)"
assay_value = -0.588

[[record]]
compound = "COc1ccc(N/C=C(\\C#N)c2nc3ccccc3n2C)c(OC)c1"
assay_value = -0.725

[[record]]
compound = "CN1CCN(CCCCC(=O)c2ccccc2)CC1"
assay_value = -1.07

[[record]]
compound = "CC1(C)Cc2c(sc3nc4n(c(=O)c23)CCC4)CO1"
assay_value = 1.46

[[record]]
compound = "Cn1c(=O)c2c(nc(N3CCN(Cc4ccccc4)CC3)n2CC(=O)c2ccccc2)n(C)c1=O"
assay_value = -0.211

[[record]]
compound = "CSc1nc(O)c(Cc2ccccc2)c(=O)[nH]1"
assay_value = -0.524

[[record]]
compound = "CCCOc1ccc(-c2nnc(N)s2)cc1"
assay_value = 0.84

[[record]]
compound = "Cc1ccc(-c2nn3c(-c4cccc(Cl)c4)nnc3s2)cc1"
assay_value = -0.179

[[record]]
compound = "CCOP(=O)(c1ccccc1)c1nc(-c2ccc(F)cc2)oc1N1CCCCC1 (stereo not given)"
assay_value = -0.227

[[record]]
compound = "CCN(CC)CCN1C(=O)C(O)=C(C(=O)c2cccs2)C1c1ccccn1 (stereo not given)"
assay_value = 0.653

[[record]]
compound = "CSC1=C(C#N)C(c2ccc(C)s2)CC(=O)N1 (stereo not given)"
assay_value = 2.55

[[record]]
compound = "CN(C)CCCOC(=O)C1c2ccccc2Oc2ccccc21"
assay_value = -0.729

[[record]]
compound = "CC1CNCCN1S(=O)(=O)c1cccc2cnccc12 (stereo not given)"
assay_value = 0.0835

[[record]]
compound = "CCOC(=O)COc1nc(N(C)C)nc(N(C)C)n1"
assay_value = 0.0213

[[record]]
compound = "CCOC(=O)c1ccc2nc(NC(NC(C)=O)(C(=O)OC)C(F)(F)F)sc2c1 (stereo not given)"
assay_value = -0.549

